Values compiled from patent US20070270418A1.

molecular target: p38α (Homo sapiens, UniProt Q16539); construct: p38 MAP Kinases are recombinant human full-length proteins with an amino-terminal GST fusion; GST (N); test: p38 MAP Kinase assay, ATF2 phosphorylation (ELISA); conditions: 40 μM ATP
Sequence (Q16539 whole entry, the tested form may be a part): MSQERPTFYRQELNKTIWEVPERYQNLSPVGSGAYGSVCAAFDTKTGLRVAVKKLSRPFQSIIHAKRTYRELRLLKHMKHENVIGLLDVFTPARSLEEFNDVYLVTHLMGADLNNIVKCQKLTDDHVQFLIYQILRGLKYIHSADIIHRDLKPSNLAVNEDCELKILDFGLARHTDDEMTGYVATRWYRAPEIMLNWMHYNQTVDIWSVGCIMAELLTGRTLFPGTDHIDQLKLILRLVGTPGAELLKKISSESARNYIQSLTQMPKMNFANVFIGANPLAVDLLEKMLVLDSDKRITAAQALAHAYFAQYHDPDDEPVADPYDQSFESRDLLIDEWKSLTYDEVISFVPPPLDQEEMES
Measured IC50 values are reported for all entries that follow.
Give me the value, and tack the unit on after it.

Use these answered entries as a reference point.
# compound, IC50
measured = [
    ("CC(CO)(CO)Nc1nccc(-c2c(-c3ccc(F)cc3)nc3sccn23)n1", "192 nM"),
    ("CCSCCNc1nccc(-c2c(-c3ccc(F)cc3)nc3occn23)n1", "10.5 nM"),
    ("CCCC[C@@H](CO)Nc1nccc(-c2c(-c3ccc(F)cc3)nc3occn23)n1", "86.6 nM"),
    ("OC1CCN(c2nccc(-c3c(-c4ccc(F)cc4)nc4sccn34)n2)CC1", "594 nM"),
    ("C[C@@H](Nc1nccc(-c2c(-c3ccc(F)cc3)nc3sccn23)n1)C(N)=O", "22.2 nM"),
]

Bench note: what IC50 did Cc1ccc(-c2nc3sccn3c2-c2ccnc(NC(CO)CO)n2)cc1 show?
558 nM

What would you report for CC(C)C(CO)Nc1nccc(-c2c(-c3ccc(F)cc3)nc3sccn23)n1 (stereo not shown) ?
4.67 nM

Would you mind doing CC(C)[C@@H](CO)Nc1nccc(-c2c(-c3cccc(F)c3)nc3sccn23)n1 as well?
26 nM

Cool, now COc1ccc(CNc2nccc(-c3c(-c4ccc(F)cc4)nc4occn34)n2)cc1OC
72.8 nM

Same question for CC(=O)N1CCC(Nc2nccc(-c3c(-c4ccccc4C)nc4occn34)n2)CC1 please.
4.8 nM

###

biological target: Syk (Homo sapiens, UniProt P43405); construct: purchased Upstate (Charlottesville, Va.); experiment: Broad selectivity panel, 32P incorporation; format: biochemical; settings: 1 μM compound, 40 μM ATP; read-out: Percent inhibition Syk
property-measured: inhibition at 1 µM
Answers without a unit are incomplete; give the number and then its unit.

inhibition at 1 µM lookup needed for CN1[C@@H]2CC[C@H]1C[C@@H](Nc1nccc(-c3c(-c4ccc(F)cc4)nc4occn34)n1)C2 , thanks.
33%

Now this one: Fc1ccc(-c2nc3occn3c2-c2ccnc(NC3CCNCC3)n2)cc1
40%

Same again, this time with Fc1ccc(-c2nc3occn3c2-c2ccnc(N[C@@H]3CN4CCC3CC4)n2)cc1
33%

Further, for CN(C)CC(C)(C)CNc1nccc(-c2c(-c3ccc(F)cc3)nc3occn23)n1 ?
33%

Same thing, different compound: CS(=O)(=O)N1CCC(Nc2nccc(-c3c(-c4ccc(F)cc4)nc4occn34)n2)CC1
10%

Consider next the compound Fc1ccc(-c2nc3occn3c2-c2ccnc(N[C@H]3CN4CCC3CC4)n2)cc1 in the same way.
23%

###

target: CDK2/cyclinA (Homo sapiens); construct: purchased Upstate (Charlottesville, Va.); assay: Broad selectivity panel, 32P incorporation; assay type: biochemical; details: 0.1 μM compound, 40 μM ATP; read-out: Percent inhibition CDK2/cyclinA
property-measured: inhibition at 0.1 µM (%)
// return numeric value only (unit: %, not printed)

# smiles-string, property-measured, unit-of-measurement, recorded-number
records = [
    ("Fc1ccc(-c2nc3occn3c2-c2ccnc(N[C@@H]3CN4CCC3CC4)n2)cc1", "inhibition at 0.1 µM", "%", 0),
    ("CN1[C@@H]2CC[C@H]1C[C@@H](Nc1nccc(-c3c(-c4ccc(F)cc4)nc4occn34)n1)C2", "inhibition at 0.1 µM", "%", -2),
    ("Fc1ccc(-c2nc3occn3c2-c2ccnc(NC3CCNCC3)n2)cc1", "inhibition at 0.1 µM", "%", 3),
    ("CN(C)CC(C)(C)CNc1nccc(-c2c(-c3ccc(F)cc3)nc3occn23)n1", "inhibition at 0.1 µM", "%", -1),
    ("CS(=O)(=O)N1CCC(Nc2nccc(-c3c(-c4ccc(F)cc4)nc4occn34)n2)CC1", "inhibition at 0.1 µM", "%", 24),
    ("Fc1ccc(-c2nc3occn3c2-c2ccnc(N[C@H]3CN4CCC3CC4)n2)cc1", "inhibition at 0.1 µM", "%", 1),
]

Please state recorded inhibition at 0.1 µM (tested on CDK2/cyclinA (Homo sapiens)) of CC(=O)N1CCC(Nc2nccc(-c3c(-c4ccc(F)cc4)nc4occn34)n2)CC1
1
